Reference source: patent US10702568B2

I'd appreciate it if you could supply AUC(0-2 h) values for the items below.
Test: Pharmacokinetic study in rat
Assay type: in vivo
Conditions: in vivo, po
Numbers only, in ng·h/mL.

Worked cases, AUC(0-2 h) given:
[[record]]
chem_smiles = "COc1cc([C@H]2Oc3cc([C@H]4Oc5cc(O)cc(O)c5C(=O)[C@@H]4O)ccc3O[C@@H]2CO)ccc1O"
quantitative_result = 271

[[record]]
chem_smiles = "COc1cc([C@@H]2Oc3cc([C@H]4Oc5cc(O)cc(O)c5C(=O)[C@@H]4O)ccc3O[C@H]2CO)ccc1O"
quantitative_result = 395

[[record]]
chem_smiles = "COc1cc([C@H]2Oc3ccc([C@H]4Oc5cc(O)cc(O)c5C(=O)[C@@H]4O)cc3O[C@@H]2CO)ccc1O"
quantitative_result = 150


Q. Name the recorded AUC(0-2 h) for `COc1cc([C@@H]2Oc3ccc([C@H]4Oc5cc(O)cc(O)c5C(=O)[C@@H]4O)cc3O[C@H]2CO)ccc1O` .
A. 433

====

Experiment: Silymarin solubility in water, CAPTISOL® solution and γ-cyclodextrin solution (Example 2, HPLC)
Type: physicochemical
Details: water, thermodynamic from solid, Solubility (mg/ml) of components of silymarin
Please go through the items and note down their solubility.
Answers are plain numbers, in µg/mL.

Here is how some compounds turned out for solubility.
[[record]]
compound = "COc1cc([C@@H]2Oc3cc([C@H]4Oc5cc(O)cc(O)c5C(=O)[C@@H]4O)ccc3O[C@H]2CO)ccc1O [Silybin B]"
uom = "µg/mL"
quantitative_result = 30

[[record]]
compound = "COc1cc([C@@H]2[C@H]3CO[C@@]4(O)C(=O)[C@@H]2C=C([C@H]2Oc5cc(O)cc(O)c5C(=O)[C@@H]2O)[C@@H]34)ccc1O [Silydianin]"
uom = "µg/mL"
quantitative_result = 120

[[record]]
compound = "COc1cc([C@@H]2Oc3c(O)cc([C@H]4Oc5cc(O)cc(O)c5C(=O)[C@@H]4O)cc3[C@H]2CO)ccc1O [Silychristin A]"
uom = "µg/mL"
quantitative_result = 440

[[record]]
compound = "COc1cc([C@H]2Oc3c(O)cc([C@H]4Oc5cc(O)cc(O)c5C(=O)[C@@H]4O)cc3[C@@H]2CO)ccc1O [Silychristin B]"
uom = "µg/mL"
quantitative_result = 60

[[record]]
compound = "COc1cc([C@H]2Oc3ccc([C@H]4Oc5cc(O)cc(O)c5C(=O)[C@@H]4O)cc3O[C@@H]2CO)ccc1O [Isosilybin A]"
uom = "µg/mL"
quantitative_result = 40


Q. Record request: solubility value, item COc1cc([C@H]2Oc3cc([C@H]4Oc5cc(O)cc(O)c5C(=O)[C@@H]4O)ccc3O[C@@H]2CO)ccc1O [Silybin A]
A. 30

====

Can you tell me logD at 16 h for the items I'm about to list?
Assay: Log D of silymarin components (octanol/buffer, HPLC)
Format: physicochemical
Settings: pH 7.4
Give bare numbers.

Recorded results for 3 compounds are shown here.
[[record]]
chem_smiles = "COc1cc([C@H]2Oc3cc([C@H]4Oc5cc(O)cc(O)c5C(=O)[C@@H]4O)ccc3O[C@@H]2CO)ccc1O"
quantitative_result = 2.26

[[record]]
chem_smiles = "COc1cc([C@@H]2Oc3cc([C@H]4Oc5cc(O)cc(O)c5C(=O)[C@@H]4O)ccc3O[C@H]2CO)ccc1O"
quantitative_result = 1.99

[[record]]
chem_smiles = "COc1cc([C@H]2Oc3ccc([C@H]4Oc5cc(O)cc(O)c5C(=O)[C@@H]4O)cc3O[C@@H]2CO)ccc1O"
quantitative_result = 2.47


Now look at this one.
Q. Find the recorded logD at 16 h belonging to `COc1cc([C@@H]2[C@H]3CO[C@@]4(O)C(=O)[C@@H]2C=C([C@H]2Oc5cc(O)cc(O)c5C(=O)[C@@H]2O)[C@@H]34)ccc1O` and report it.
A. 1.64
